Each entry below carries its reported IC50.
molecular target: Protein kinase C (PKC); test: Inhibition of rat brain PKC

Use the examples below as a reference point.
OC[C@H]1O[C@@H](Oc2cc(O)cc(/C=C/c3ccc(O)cc3)c2)[C@H](O)[C@@H](O)[C@@H]1O
2 ×10² ug/ml
Oc1ccc(/C=C/c2cc(O)cc(O)c2)cc1
4 ×10¹ ug/ml
OC[C@H]1O[C@@H](Oc2ccc(/C=C\c3cc(O)cc(O)c3)cc2)[C@H](O)[C@@H](O)[C@@H]1O
6 µg/mL

[Q] Determine from records and report IC50 for CN1CCN(CCCN2c3ccccc3Sc3ccc(C(F)(F)F)cc32)CC1
[A] 30 µg/mL

----------
target: Protein kinase C (PKC); assay: Inhibition of rat brain PKC
measurement_type: IC50

Observe how each entry below is paired with its result.
OC[C@H]1O[C@@H](Oc2ccc(/C=C/c3cc(O)cc(O)c3)cc2)[C@H](O)[C@@H](O)[C@@H]1O
3 µg/mL
Oc1ccc(/C=C\c2cc(O)cc(O)c2)cc1 [CIS-RESVERATROL]
3 ×10¹ ug/ml

Shift focus to the following entry.
[Q] Return value of IC50 for input OC[C@H]1O[C@@H](Oc2cc(O)cc(/C=C\c3ccc(O)cc3)c2)[C@H](O)[C@@H](O)[C@@H]1O , no commentary.
[A] 2 ×10² ug/ml
